Target: DPP-IV (Homo sapiens, UniProt P27487)
Construct: purchased Abnova KA1311
Sequence (P27487 whole entry): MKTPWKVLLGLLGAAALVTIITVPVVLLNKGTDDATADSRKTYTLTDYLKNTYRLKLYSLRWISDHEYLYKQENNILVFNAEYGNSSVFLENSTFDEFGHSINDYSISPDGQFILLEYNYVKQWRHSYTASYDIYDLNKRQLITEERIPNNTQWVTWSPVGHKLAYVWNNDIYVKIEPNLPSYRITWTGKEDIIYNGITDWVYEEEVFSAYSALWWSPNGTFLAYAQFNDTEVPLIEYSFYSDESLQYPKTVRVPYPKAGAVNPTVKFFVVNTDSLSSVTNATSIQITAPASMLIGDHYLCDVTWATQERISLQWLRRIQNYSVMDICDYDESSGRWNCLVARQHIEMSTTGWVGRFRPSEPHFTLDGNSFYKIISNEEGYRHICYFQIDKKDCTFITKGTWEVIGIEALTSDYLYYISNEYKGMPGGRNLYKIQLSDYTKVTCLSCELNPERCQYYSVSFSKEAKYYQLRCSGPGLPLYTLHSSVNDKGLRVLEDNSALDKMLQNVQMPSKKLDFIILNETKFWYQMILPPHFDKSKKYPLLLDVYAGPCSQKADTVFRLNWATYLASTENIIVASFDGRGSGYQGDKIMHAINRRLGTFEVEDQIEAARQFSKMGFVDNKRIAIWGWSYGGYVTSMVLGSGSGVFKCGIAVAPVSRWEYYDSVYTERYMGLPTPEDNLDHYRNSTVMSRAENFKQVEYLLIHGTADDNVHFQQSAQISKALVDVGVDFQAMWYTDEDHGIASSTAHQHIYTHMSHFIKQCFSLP
Assay: DPP-IV inhibition assay (DPP-IV inhibitor screening assay kit, Gly-Pro-Aminomethylcoumarin substrate)
Assay type: biochemical
Details: chemically synthesized peptides; mean ± SD of three replicates
Peptide text beside a SMILES is read from it.
Outcome Measure: IC50 (µM)

Some solved cases for reference:
Compound	Measured On	Units Text	IC50
CSCC[C@H](NC(=O)[C@@H](N)CC(N)=O)C(=O)N[C@@H](Cc1ccccc1)C(=O)O [NMF] (H-Asn-Met-Phe-OH)	DPP-IV (Homo sapiens, UniProt P27487)	µM	127
N[C@@H](Cc1cnc[nH]1)C(=O)N1CCC[C@H]1C(=O)N[C@@H](Cc1ccccc1)C(=O)O [HPF] (H-His-Pro-Phe-OH)	DPP-IV (Homo sapiens, UniProt P27487)	µM	34.3

P. CSCC[C@H](N)C(=O)N[C@@H](CS)C(=O)NCC(=O)O [MCG] (H-Met-Cys-Gly-OH)
Q. CSCC[C@H](N)C(=O)N[C@@H](C)C(=O)N[C@@H](Cc1ccccc1)C(=O)O [MAF] (H-Met-Ala-Phe-OH)
# input Lab note: check whether P or Q has the lower measured IC50. Write down the label of the entry you select.
# output P

* * *

Peptide text beside a SMILES is read from it.
These records show IC50 for ACE (Homo sapiens, UniProt P12821).
Outcome Measure: IC50 (µM)

Compound	Units Text	IC50
CSCC[C@H](N)C(=O)N[C@@H](CS)C(=O)NCC(=O)O [MCG] (H-Met-Cys-Gly-OH)	µM	20.9
CSCC[C@H](NC(=O)[C@@H](N)CC(N)=O)C(=O)N[C@@H](Cc1ccccc1)C(=O)O [NMF] (H-Asn-Met-Phe-OH)	µM	152

P. N[C@@H](Cc1cnc[nH]1)C(=O)N1CCC[C@H]1C(=O)N[C@@H](Cc1ccccc1)C(=O)O [HPF] (H-His-Pro-Phe-OH)
Q. CSCC[C@H](N)C(=O)N[C@@H](C)C(=O)N[C@@H](Cc1ccccc1)C(=O)O [MAF] (H-Met-Ala-Phe-OH)
# input Of the two listed items, which has the higher IC50? First: P Second: Q Lab note: record the label of whichever item you select.
# output Q
